- Test system: Escherichia coli
- EXPERIMENT_DESCRIPTION: Binding affinity to Escherichia coli sliding clamp assessed as dissociation rate constant by ITC analysis
Where a SMILES comes first, the peptide text is derived from it. [ ]: non-standard residue; d: D form. The star is where a group is joined. NMeR = CN[C@@H](CCCNC(=N)N)C(=O)O; X3 = CN(C)/C(=N\CC(=O)*)N1CCOCC1; Cha = N[C@@H](CC1CCCCC1)C(=O)O
We begin with a simple list: items and their reported K.

MOLECULE	MEASURED_METRIC	ENDPOINT_RESULT
CC(C)C[C@H](NC(=O)[C@H](CC(=O)O)NC(=O)[C@H](CC1CCCCC1)NC(=O)[C@H](CCC(N)=O)NC(=O)C/N=C(\N(C)C)N1CCOCC1)C(=O)N[C@@H](Cc1ccccc1)C(=O)O (X3-Q[Cha]DLF-OH)	K	1 10^-2/s

Would you kindly look at the next entry?
For CC(=O)N(C)[C@@H](CCCNC(=N)N)C(=O)N[C@@H](CCC(N)=O)C(=O)N[C@@H](CC1CCCCC1)C(=O)N[C@@H](CC(=O)O)C(=O)N[C@@H](CC(C)C)C(=O)N[C@@H](Cc1ccccc1)C(=O)O (Ac-[NMeR]Q[Cha]DLF-OH) the molecule record lists K as 2.9 10^-2/s
